test system: DU 145, hormone-independent human prostate carcinoma cells; experiment: Proliferation assay, DU145 (crystal violet); format: cell-based; settings: Homo sapiens, DU-145, 96 h, DU145, 4 days; read-out: Inhibition of DU145 cell proliferation IC50
pIC50: −log10 of the molar value.
parameter: pIC50

| compound | parameter | endpoint result |
| --- | --- | --- |
| COc1cc(F)ccc1-c1cc(Nc2cc(CS(C)(=N)=O)c(Br)c(C)n2)ncc1F (racemic) | pIC50 | 6.96 |
| CCOc1cc(F)ccc1-c1cc(Nc2cc(CS(C)(=N)=O)cc(F)n2)ncc1F (racemic) [Example 26] | pIC50 | 6.96 |
| CCNC(=O)N=S(C)(=O)Cc1ccnc(Nc2cc(-c3ccc(F)cc3OC)c(F)cn2)c1 (racemic) | pIC50 | 7.11 |
| COc1cc(F)ccc1-c1cc(Nc2cc(CS(C)(=O)=NC(=O)C(F)(F)F)cc(F)n2)ncc1F (racemic) | pIC50 | 7.39 |
| COc1cc(F)ccc1-c1cc(Nc2cc(CS(C)(=N)=O)cc(F)n2)ncc1F (single isomer, unassigned; (+)) [Example 19] | pIC50 | 7.24 |

(1) COc1cc(F)ccc1-c1cc(Nc2cc(CS(C)(=N)=O)ccn2)ncc1F (racemic)
(2) CCOc1cc(F)ccc1-c1cc(Nc2cc(CS(C)(=O)=NC(=O)C(F)(F)F)cc(F)n2)ncc1F (racemic)
(3) COc1cc(F)ccc1-c1cc(Nc2cc(CS(C)(=N)=O)cc(C)n2)ncc1F (racemic) [Example 4]
Sort (3 compounds) by pIC50: min first. Output spec: a listing of the labels in the requested order.
2, 3, 1
(2: 6.96, 3: 7.17, 1: 7.43)

* * *

Experiment: Caco-2 permeation assay
Assay type: in vitro ADME, human
Conditions: human, Caco-2, pH 7.2, Caco-2, 2 μM; Papp B-A / Papp A-B
Experimental: 5. Caco-2 Permeation Assay: Caco-2 cells (purchased from DSMZ Braunschweig, Germany) were seeded at a density of 4.5×10^4 cells per well on 24 well insert plates, 0.4 μm pore size, and grown for 15 days in DMEM medium supplemented with 10% fetal bovine serum, 1% GlutaMAX (100×, GIBCO), 100 U/mL penicillin, 100 μg/mL streptomycin (GIBCO) and 1% non essential amino acids (100 ×). […] For assessment of monolayer integrity the transepithelial electrical resistance (TEER) was measured. […]
parameter: efflux ratio at 2 h, 2 µM

(P) COc1cc(F)ccc1-c1cc(Nc2cc(CS(=N)(=O)CCO)ccn2)ncc1F (racemic)
(Q) COc1cc(F)ccc1-c1cc(Nc2cc(CS(C)(=N)=O)cc(F)n2)ncc1F (racemic)
Name the one with the greater efflux ratio at 2 h, 2 µM value, either P or Q as given. // respond with label for picked entry
P

(I) CCS(=N)(=O)Cc1ccnc(Nc2cc(-c3ccc(F)cc3OC)c(F)cn2)c1 (racemic)
(II) COc1cc(F)ccc1-c1cc(Nc2cc(CS(C)(=N)=O)cc(C(F)(F)F)n2)ncc1F (racemic) [Example 21]
Form field 'greater efflux ratio at 2 h, 2 µM' accepts I or II ; which applies? Pick one and reply with its label.
I
(I: 0.92, II: 0.64)

(I) COc1cc(F)ccc1-c1cc(Nc2cc(CS(C)(=N)=O)cc(C)n2)ncc1F (racemic)
(II) COc1cc(F)ccc1-c1cc(Nc2cc(CS(C)(=N)=O)cc(C(F)(F)F)n2)ncc1F (single isomer, unassigned; (+)) [Example 22]
Recorded efflux ratio at 2 h, 2 µM values differ for I and II ; which one is higher? Respond with the label that goes with your answer.
II
